// provenance: patent US12264134B2

- STUDY SYSTEM: IDO1 (Homo sapiens, UniProt P14902)
- Sequence (P14902 whole entry): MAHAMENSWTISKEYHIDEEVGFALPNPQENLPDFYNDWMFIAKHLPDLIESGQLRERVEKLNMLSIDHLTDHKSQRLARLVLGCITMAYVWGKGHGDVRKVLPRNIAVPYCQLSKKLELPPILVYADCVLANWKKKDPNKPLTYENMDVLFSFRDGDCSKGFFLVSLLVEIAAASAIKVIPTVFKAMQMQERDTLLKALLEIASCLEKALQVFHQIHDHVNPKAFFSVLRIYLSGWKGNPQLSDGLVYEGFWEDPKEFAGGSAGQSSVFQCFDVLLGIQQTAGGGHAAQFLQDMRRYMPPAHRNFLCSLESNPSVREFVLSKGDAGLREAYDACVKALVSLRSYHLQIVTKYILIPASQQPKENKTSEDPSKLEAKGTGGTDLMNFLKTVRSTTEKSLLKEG
- PROTOCOL: IDO1 Cellular Assay in HeLa Cells Stimulated with IFNγ
- Format: cell-based
- APPLIED CONDITIONS: read-out: HeLa Cell Potency, IC50
RESULT TYPE: pIC50
// pIC50 is dimensionless: -log10 of concentration (M)

// query Consider the compound shown here: Cc1c(Cl)cccc1N1CCN(C(=O)Cn2nc(C(=O)N3CC[C@@H](O)[C@@H](F)C3)c3c2CCC(F)C3)CC1 (stereo partly shown) [Example 370] What is its recorded pIC50?
// result 8.02

// query Please do the same for `Cc1ccc(F)cc1N1CCN(C(=O)Cn2nc(C(=O)N3C[C@@H](C)O[C@@H](C)C3)c3c2CCC3)CC1` as well.
// result 7.47

// query Next record, please: `C[C@@H]1CN(C(=O)c2nn(CC(=O)N3CCN(c4ccccc4Cl)CC3)c3c2CCC3)C[C@H](C)O1`
// result 6.61

// query How about `Cc1cccc(N2CCN(C(=O)Cn3nc(C(=O)N4CCN(C(=O)CO)C[C@H]4C)c4c3CCC4)CC2)c1C` ?
// result 8.45

// query Would you mind doing `Cc1cccc(N2CCN(C(=O)Cn3nc(C(=O)N4CC[C@@H]5[C@H](CCC(=O)N5C)C4)c4c3C[C@H]3C[C@@H]43)CC2)c1C` as well?
// result 9.19

// query And Cc1cccc(N2CCN(C(=O)Cn3nc(C(=O)N4CCC(O)CC4)c4c3C[C@H]3C[C@@H]43)C(C(F)F)C2)c1C (single isomer, unassigned) [Example 386] ?
// result 7.86

// query Same read-out for `Cc1cccc(N2CCN(C(=O)Cn3nc(C(=O)N4C[C@@H](C)O[C@@H](C)C4)c4c3CCC4)CC2)c1C` ?
// result 8.59
